Assay: Solubility
Format: physicochemical
Details: OLIVE OIL
Assay Endpoint: Solubility
The answer consists of two parts: a number and, after it, its unit.

Recorded results for 2 compounds are shown here.
Compound	Endpoint Result
COc1ccc(C=C2NC(=O)N(CCCCCCCCCCCCCCCC(C)C)C2=O)cc1 [compound 2, 5-(4-METHOXYBENZYLIDENE)-3-[…]]	17%
CCCCC(CC)COc1ccc(C=C2NC(=O)N(CC(CC)CCCC)C2=O)cc1 (stereo not shown) [COMPOUND 3]	7%

What value of Solubility has been reported for the following compound? CCCCC(CC)CN1C(=O)NC(=Cc2ccc(OC)cc2)C1=O (stereo not shown) [COMPOUND 1] 3.2%

What do you get for CCCCCCCCN1C(=O)NC(=Cc2ccc(OC)cc2)C1=O [COM. 1, reference compound] ? 0.4%
